Values from patent US8507411B2

Tested on: HCT-116
Assay: High-throughput calcein AM cytotoxicity assay, HCT-116
Format: cell-based, human
Details: HCT-116, 72 h, calcein AM; read-out: IC50
Value type: pIC50
Hey, just a heads up that pIC50 is the negative log base 10 of the concentration in molar.

**Query** Name the reported pIC50 value associated with the compound CON([C@H]1CC[C@@]2(C)[C@H](CC[C@@H]3[C@@H]2CC[C@]2(C)[C@@H](C4=CC(=O)OC4)CC[C@]32O)C1)[C@H]1OC[C@H](O)[C@H](O)[C@@H]1O [5β, L-riboside]
**Result** 7.74

---

Tested on: NCI/ADR-RES
Experiment: cells
Format: cell-based, human
Settings: NCI/ADR-RES cells; read-out: IC50, NCI/ADR-RES
Value type: pIC50
Hey, just a heads up that pIC50 is the negative log base 10 of the concentration in molar.

**Query** Name the reported pIC50 value associated with the compound CON(C1CCC2(C)C(CCC3C2CCC2(C)C(C4=CC(=O)OC4)CCC32O)C1)C1OC(CO)C(O)C(O)C1NC(C)=O [34β, N-acetyl-D-galactosaminoside]
**Result** 5.19

**Query** Then this compound: CON(C1CCC2(C)C(CCC3C2CCC2(C)C(C4=CC(=O)OC4)CCC32O)C1)C1OC(CO)C(OC2OC(CO)C(O)C(O)C2O)C(O)C1O (stereo not drawn) [36β, lactoside]
**Result** 4.89

**Query** Then this compound: CON([C@H]1CC[C@@]2(C)[C@H](CC[C@@H]3[C@@H]2CC[C@]2(C)[C@@H](C4=CC(=O)OC4)CC[C@]32O)C1)[C@H]1O[C@@H](CO)[C@H](O)[C@H](O)[C@H]1O [19β, L-altroside]
**Result** 6.39

**Query** Then this compound: CON([C@H]1CC[C@@]2(C)[C@H](CC[C@@H]3[C@@H]2CC[C@]2(C)[C@@H](C4=CC(=O)OC4)CC[C@]32O)C1)[C@@H]1O[C@H](CO)[C@H](O)[C@H](O)[C@H]1O [22β, D-galactoside]
**Result** 6.10
